Sourced from patent US20160030416A1

# TEST_DETAILS: Pharmacokinetics, single oral gavage, 2 formulations, Wistar and Sprague-Dawley rats
# Format: in vivo
# CONDITION_INFO: female, Sprague-Dawley, rat, plasma, po, 75 mg/kg, Formulation 2, S-D (Female)
# Method: Pharmacokinetics and gender differences were evaluated with 2 different formulations of CFMQ (HGT3711) in 2 different types of rat models. These attributes were investigated in a single oral gavage study. Male and female Wistar rats (n=3 per dose group) received CFMQ (HGT3711) at 15, […], and or 150 mg/kg. […] The two vehicle formulations evaluated were formulation 1: 10% N-methyl pyrrolidone (NMP): 10% Ethanol: 30% polyethylene glycol (PEG400): 50% […] […]
RECORDED_METRIC: AUC(0-t) (ng·h/mL)

{"SMILES_STR": "Cc1cc(Cl)c(COc2cccc3c(-n4cc(F)cn4)cc(C)nc23)c(Cn2cccc(C#N)c2=O)n1", "MEASUREMENT_UNITS": "ng·h/mL", "QUANTITATIVE_RESULT": 20600}

----------
# TEST_DETAILS: Pharmacokinetics, single oral gavage, CD-1 mice
# Type: in vivo, female CD-1 mice
# CONDITION_INFO: female, CD-1, mouse, plasma, 450 mg/kg

{"COMPOUND": "Cc1cc(Cl)c(COc2cccc3c(-n4cc(F)cn4)cc(C)nc23)c(Cn2cccc(C#N)c2=O)n1 [CFMQ]", "AUC(0-t) / ng·h/mL": 40800}

----------
# TEST_DETAILS: Pharmacokinetics, single oral gavage, 2 formulations, Wistar and Sprague-Dawley rats
# Format: in vivo
# CONDITION_INFO: male, Sprague-Dawley, rat, plasma, po, 75 mg/kg, Formulation 2, S-D (Male)
RECORDED_METRIC: Tmax (min)

{"COMPOUND": "Cc1cc(Cl)c(COc2cccc3c(-n4cc(F)cn4)cc(C)nc23)c(Cn2cccc(C#N)c2=O)n1 [CFMQ]", "RECORDED_METRIC": "Tmax", "MEASUREMENT_UNITS": "min", "QUANTITATIVE_RESULT": 40.2}

----------
# TEST_DETAILS: Pharmacokinetics, single oral gavage, CD-1 mice
# Assay type: in vivo, female CD-1 mice
# CONDITION_INFO: female, CD-1, mouse, plasma, 100 mg/kg, 10 min, read-out: Average Concentration of HGT3711

{"SMILES_STR": "Cc1cc(Cl)c(COc2cccc3c(-n4cc(F)cn4)cc(C)nc23)c(Cn2cccc(C#N)c2=O)n1", "concentration at 10 min, µg/mL": 5.3}

----------
# TEST_DETAILS: Plasma kinetics, intravenous, Sprague-Dawley rats
# Format: in vivo, female Sprague-Dawley rats
# CONDITION_INFO: female, Sprague-Dawley, rat, plasma; IV 1 mg/kg, 0.25 hr; read-out: Average Concentration of HGT3711
# Experimental: CFMQ (HGT3711) was administered to fasted female Sprague-Dawley rats by a single intravenous injection at 1.0 mg/kg, formulated in 100% PEG200 (Table 2.6.5.X, Study 10SHIRUSP11). […] Plasma concentrations of CFMQ (HGT3711) were determined by LC-MS/MS and concentrations below the limit of quantitation (1 ng/mL) were assigned a value of zero for pharmacokinetic analysis. […]

{"COMPOUND": "Cc1cc(Cl)c(COc2cccc3c(-n4cc(F)cn4)cc(C)nc23)c(Cn2cccc(C#N)c2=O)n1 [CFMQ]", "MEASUREMENT_UNITS": "ng/mL", "concentration at 0.25 hr": 401}
